Values were extracted from the NIST ThermoML archive (doi:10.1021/acs.jced.8b00583).

Settings: 313.15 K; 100 kPa; Liquid; Alternating current cell with electrodes
value kind: electrical conductivity (S/m)

Please review the entries below; each comes with its answer.
May I ask what electrical conductivity has been recorded for CCCC[NH3+].O=C[O-] [butylammonium formate] ? 0.511

State the recorded electrical conductivity for this entry: CC(=O)O.CCCCN [butylammonium acetate] 0.128

A = CCC(=O)[O-].CCCC[NH3+] [butylammonium propanoate]
B = CCCC(=O)[O-].CCCC[NH3+] [n-butylammonium butanoate]
Hi, I'm comparing A with B and wondering which one has the bigger number for electrical conductivity. Any idea? Refer to your chosen entry by its label in the reply. A
(A: 0.111 S/m, B: 0.073 S/m)
